# test_summary: S16 Schwann cell PMP22 intronic element beta-lactamase assay (AID 624044);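 further: 0% = DMSO and -100% = potassium clavulanate positive control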
# measurement_conditions: S16 rat Schwann cells, PMP22 element beta-lactamase FRET, 24 h; at 38.3 µM (top of the series) unless noted
Records with an inconclusive call do not appear.

{"columns": ["compound", "ratio activity, negative = inhibition (%)"],
 "data": [
  ["CC(C)NCC(O)COc1ccccc1-n1cccc1 (configuration not stated)", -5.07],
  ["CNC(=O)c1c(I)c(C(=O)NCC(=O)Nc2c(I)c(C(=O)O)c(I)c(C(=O)NCCO)c2I)c(I)c(N(C)C(C)=O)c1I", 5.89],
  ["Nc1ncnc2c1ncn2CCOCP(=O)(O)O", 0.57],
  ["OC[C@H]1O[C@@](CO)(O[C@H]2O[C@H](CO)[C@@H](O)[C@H](O)[C@H]2O)[C@@H](O)[C@@H]1O", 0],
  ["O.O.O.O.O.O.O.O=S(=O)([O-])[O-].[Co+2]", -3.44],
  ["Oc1cccc(O)c1O", -1.18],
  ["Cc1ncc[nH]1", -0.768]
]}
